// provenance: ChEMBL document CHEMBL4342412

# test.target: Glycylpeptide N-tetradecanoyltransferase (Leishmania major, UniProt Q4Q5S8, H398N)
# assay.procedure: Inhibition of Leishmania major NMT H398N mutant expressed in Escherichia coli Rosetta-2 cells using GSNKSKPK as substrate in presence of MyrCoA after 30 mins by CPM dye based fluorescence assay
pKi: −log10 of the molar value.

- molecular.string: "Cc1nn(C)c(C)c1N(C)S(=O)(=O)c1c(Cl)cc(CCCN2CCN3CCC[C@@H]3C2)cc1Cl"
  test.target: "Glycylpeptide N-tetradecanoyltransferase (Leishmania major, UniProt Q4Q5S8, H398N)"
  pKi: 8.89
- molecular.string: "O=C(Cc1ccc(F)cc1)Nc1ccc2[nH]cc(C3CCNCC3)c2c1"
  test.target: "Glycylpeptide N-tetradecanoyltransferase (Leishmania major, UniProt Q4Q5S8, H398N)"
  pKi: 6.28
- molecular.string: "Cc1nn(C)c(C)c1N(C)S(=O)(=O)c1c(Cl)cc(CCCN2CCNCC2)cc1Cl"
  test.target: "Glycylpeptide N-tetradecanoyltransferase (Leishmania major, UniProt Q4Q5S8, H398N)"
  pKi: 8.80
- molecular.string: "Cc1nn(C)c(C)c1NS(=O)(=O)c1c(Cl)cc(-c2ccnc(N3CCN(C)CC3)c2)cc1Cl"
  test.target: "Glycylpeptide N-tetradecanoyltransferase (Leishmania major, UniProt Q4Q5S8, H398N)"
  pKi: 8.07

* * *

# test.target: Glycylpeptide N-tetradecanoyltransferase (Leishmania major, UniProt Q4Q5S8, L421Q)
# assay.procedure: Inhibition of Leishmania major NMT L421Q mutant expressed in Escherichia coli Rosetta-2 cells using GSNKSKPK as substrate in presence of MyrCoA after 30 mins by CPM dye based fluorescence assay
pKi: −log10 of the molar value.
quantity.name: pKi

- molecular.string: "Cc1nn(C)c(C)c1N(C)S(=O)(=O)c1c(Cl)cc(CCCN2CCNCC2)cc1Cl"
  assay.value: 8.64
- molecular.string: "O=C(Cc1ccc(F)cc1)Nc1ccc2[nH]cc(C3CCNCC3)c2c1"
  assay.value: 5.59
- molecular.string: "Cc1nn(C)c(C)c1NS(=O)(=O)c1c(Cl)cc(-c2ccnc(N3CCN(C)CC3)c2)cc1Cl"
  assay.value: 8.22
- molecular.string: "Cc1nn(C)c(C)c1N(C)S(=O)(=O)c1c(Cl)cc(CCCN2CCN3CCC[C@@H]3C2)cc1Cl"
  assay.value: 7.44

* * *

# test.target: Glycylpeptide N-tetradecanoyltransferase (Leishmania major)
# Sequence (Q4Q5S8 whole entry): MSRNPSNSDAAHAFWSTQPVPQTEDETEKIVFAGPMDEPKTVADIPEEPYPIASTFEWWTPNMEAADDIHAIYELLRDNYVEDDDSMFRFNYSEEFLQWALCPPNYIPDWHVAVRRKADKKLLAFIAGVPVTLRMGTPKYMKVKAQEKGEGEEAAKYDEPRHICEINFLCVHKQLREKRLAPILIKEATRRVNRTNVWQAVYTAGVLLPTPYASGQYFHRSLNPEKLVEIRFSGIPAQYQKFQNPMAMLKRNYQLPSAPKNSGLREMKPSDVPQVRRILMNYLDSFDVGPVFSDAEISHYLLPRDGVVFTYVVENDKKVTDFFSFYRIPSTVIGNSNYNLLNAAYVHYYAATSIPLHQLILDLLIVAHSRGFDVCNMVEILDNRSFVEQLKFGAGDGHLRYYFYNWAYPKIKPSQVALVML
pKi: −log10 of the molar value.

- compound: "Cc1nn(C)c(C)c1NS(=O)(=O)c1c(Cl)cc(-c2ccnc(N3CCN(C)CC3)c2)cc1Cl"
  pKi: 8.85
- compound: "COc1ccccc1-n1cc(-c2ccnc(NCCC3CCCN3C)n2)cn1 (stereo not drawn)"
  pKi: 7.71
- compound: "O=C(Cc1ccc(F)cc1)Nc1ccc2[nH]cc(C3CCNCC3)c2c1"
  pKi: 6.01
- compound: "Cc1cncn1C(C)C(=O)NCc1cccnc1C1CCCN(C)CC1 (stereo not drawn)"
  pKi: 7.28
- compound: "Cc1nn(C)c(C)c1N(C)S(=O)(=O)c1c(Cl)cc(CCCN2CCNCC2)cc1Cl"
  pKi: 7.70
- compound: "N[C@@H](CC(=O)N1C[C@H](CO)[C@@H](c2ccc(Cl)cc2)C1)Cc1ccc(Cl)cc1"
  pKi: 6.55
- compound: "Cc1nn(C)c(C)c1N(C)S(=O)(=O)c1c(Cl)cc(CCCN2CCN3CCC[C@@H]3C2)cc1Cl"
  pKi: 8.70
- compound: "COc1cccc(Cc2noc(-c3ccccc3OC3CCNCC3)n2)c1"
  pKi: 7.15
